Cited source for all entries: patent US20230303690A1

Biological target: T1, LAG3 Protein, Human, Recombinant (His Tag) (Sino Biological Catalog No. 16498-H08H) (human, UniProt P18627 23-450)
T1 construct: Bought protein; also called hLAG3-His; LAG3-His; not shown: His tag
T1 sequence (looked up): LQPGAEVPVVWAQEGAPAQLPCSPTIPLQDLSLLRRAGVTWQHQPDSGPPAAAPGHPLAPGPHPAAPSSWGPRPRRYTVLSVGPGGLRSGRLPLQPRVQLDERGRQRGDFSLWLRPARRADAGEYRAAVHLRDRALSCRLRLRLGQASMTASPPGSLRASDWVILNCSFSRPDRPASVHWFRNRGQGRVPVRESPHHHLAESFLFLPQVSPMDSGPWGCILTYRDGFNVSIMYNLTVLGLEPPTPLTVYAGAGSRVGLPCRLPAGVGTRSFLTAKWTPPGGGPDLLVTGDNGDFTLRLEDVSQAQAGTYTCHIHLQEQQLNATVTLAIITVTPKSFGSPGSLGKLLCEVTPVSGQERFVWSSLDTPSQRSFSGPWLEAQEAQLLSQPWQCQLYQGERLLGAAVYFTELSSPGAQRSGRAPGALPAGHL
Experiment: SPR binning on LAG3-His; competitor BMS
Please note: satisfied applies when RU is 30 RU or greater, and not satisfied applies otherwise.

Sample answers from the record:
BINDER	ASSIGNED LABEL
sdAb No. 21 (VHH, Fc of the tested form not described; also called sdAb 21; not shown: Fc part implied by anti-human Fc capture) VHH: QLQLVESGGGLVQPGGSLRLSCAASGLTLDGYAIAWFRQAPGKEREGLSCISGTDGSTHYLDSVKGRFTISRDNGKNTMALQMNSLQFGDTAIYYCAARRGSCSGSWTYWGQGTQITVSS	satisfied
sdAb No. 1 (VHH, the tested form was captured by anti-human Fc, its Fc is not described; also called sdAb 1; not shown: Fc part implied by anti-human Fc capture) VHH: QLQLVESGGGLVQAGGSLRLSCAASGFTFDDYAIGWFRQAPGKEREGVSCIRSSDGSTYYADSVKGRFTISSDNAKNTVYLQMNSLKPEDTAVYYCAKDNYSDCRGPYHYWGQGTQVTVSS	satisfied
sdAb No. 17 (VHH, Fc of the tested form not described; also called sdAb 17; not shown: Fc part implied by anti-human Fc capture and anti-human IgG1 Fc detection) VHH: QLQLVESGGGLVQPGGSLRLSCAASGLTLDGYAIGWFRQAPGKEREGLACISGSDGSTHYLDSVKGRFTISRDNGKNTMALQMNSLQFGDTAIYYCAARRGSCSGSWTYWGQGTQVTVSS	not satisfied
sdAb No. 25 (VHH, Fc of the tested form not described; also called sdAb 25; sdAb #25; not shown: Fc part implied by anti-human Fc capture and anti-human IgG Fc detection) VHH: QLQLVESGGGLVQAGGSLRLSCAASGSIESFSFMGWYRQAPGKQRELVAGFTGAASLSFSTYTDAVKGRFTISRDNAKNTVYLQMNSLKPEDTAVYFCNVDPWSQSWPGRYWGQGTQVTVSS	satisfied
sdAb No. 18 (VHH, Fc of the tested form not described; also called sdAb 18; not shown: Fc part implied by anti-human Fc capture) VHH: QVQLVESGGGLVQPGGSLRLSCAASGFTLNEHAIGWFRRAPGKEREGVSCISSSDGSTYYHDSVKGRFNMSRDDAKNSVYLQMSSLKPEDTAIYYCAAALGRDCQGGQWKTSSWGQGTQVTVSS	not satisfied

# input Given sdAb No. 73 (VHH, Fc not described; also called sdAb 73; not shown: Fc part implied by anti-human Fc capture) VHH: QVQLVESGGGLVQPGGSLKLSCTASGFTLDYYAIAWFRQAPGKEREAVSCISSSDGSTRYADSVKGRFTISRDNAKNTVYLQMNSLKPEDTAVYYCAADPYGDCRGPYDYWGQGTQVTVSS , state whether its RU is at least 30 RU.
# output not satisfied

# input Does RU meet or surpass 30 RU for sdAb No. 27 (VHH, Fc of the tested form not described; also called sdAb 27; not shown: Fc part implied by anti-human Fc capture and anti-human IgG Fc detection) VHH: QVQLVESGGGLVQPGGSLRLSCAASGFTLDYYAIGWFRQAPGKEREGVSCIRSSDGSTYYADSVKGRFTISSDNTKNTVYLQMNSLKPEDTAVYYCATDRYSDCRGPYENWGQGTQVTVSS ?
# output satisfied

# input Identify whether the reported RU of the following binder is 30 RU or greater: sdAb No. 20 (VHH, Fc of the tested form not described; also called sdAb 20; not shown: Fc part implied by anti-human Fc capture) VHH: QVQLVESGGGLVQPGGSLRLSCAASGLTLDGYAVGWFRQAPGKDREGLSCISGSDGSTHYLDSVKGRFTISRDNAKSTMALQMNSLQFGDTAIYYCAARRGSCSGSWTYWGQGTQVTVSS
# output not satisfied
